Kindly supply the reported Growth_1: number of cells at day 4 divided by number of cells at day 0 values for the records listed here.
- System: A549-mRuby cells
- assay remarks: Drug screening: effect on cell growth (cell number day 4 / day 0)
- test parameters: 10 μM drug, repeat #1
Where a name gives a salt, the structure may show the parent alone.
Numbers only.

Example compounds with recorded Growth_1: number of cells at day 4 divided by number of cells at day 0:
compound	experimental target	result value
Clc1ccc2c(c1)CCc1cccnc1C2=C1CCNCC1	A549-mRuby cells	4.8
CCN(CCCCOC(=O)c1ccc(OC)c(OC)c1)C(C)Cc1ccc(OC)cc1.O (centres unmarked) [Mebeverine Hydrochloride]	A549-mRuby cells	5.2
CCCCOC(=O)c1ccc(N)cc1	A549-mRuby cells	3.9
CCCC1O[C@@H]2C[C@H]3[C@@H]4CCC5=CC(=O)C=C[C@]5(C)[C@H]4[C@@H](O)C[C@]3(C)[C@]2(C(=O)CO)O1 (some centres unmarked) [Budesonide]	A549-mRuby cells	3.9

Consider the record given below.
Query :: Sample Cc1cc(C(C)(C)C)cc(C)c1CC1=NCCN1 [Xylometazoline HCl] — what was its Growth_1: number of cells at day 4 divided by number of cells at day 0?
Result :: 5.4
